experiment: Components of the Cytosolic LPS Sensing Pathway: Gene Identification via Genome-wide siRNA Screen; conditions: RAW264.7 macrophages, IL-1a HTRF, actives lie on both sides, screened at 100 nM (by protocol), cells primed 5 h with Pam3CSK4 first
Among all 53,000 sequences or so, about 3,700 (7%) were called active. This is one part of a sample in which actives are shown more often than they occur.
Consider the following sequences and their measured z-score readings.
# answer = number (no unit)

Would you mind telling me what z-score value was observed for GGAGAAGAUUUUCUGUAUCTT against Atp13a5 ?
0.545

// z-score lookup, key: GCCCGCUCUCGGAUUUUGATT against Htr1b
1.5

Field request: z-score | item: GGCUUCUACCUUCGAGACUTT against Carns1
-2.3

Endpoint output: z-score of GCUCGUACAUCUAUGGCUATT against Psmb6 . Value?
-0.633

Record request: z-score value, item GGAUCUUGGCUAAAGAGGGTT against Slc25a25
0.0129

Entry GGAUGAUGAAUUCACACACTT against Calr has what z-score?
3.18

* * *

experiment: Components of the Cytosolic LPS Sensing Pathway: Gene Identification via Genome-wide siRNA Screen; conditions: RAW264.7 macrophages, IL-1a HTRF, actives lie on both sides, screened at 100 nM (by protocol), cells primed 5 h with Pam3CSK4 first
About 3,700 (7%) of roughly 53,000 sequences were called active. The entries come from a sample that favours actives as a whole.
Below: a set of entries, each annotated with reported z-score.
// no unit, no text: just the number

What value of z-score has been reported for the following sequence? GGACGAUGUAUUGUUAUUGTT against Lrp10
1.49

GET /values?readout=z-score&item= CGAGGUCAAUAUCAUUCCATT against Serpinb11
0.727

Need z-score of CCUCAGGUUAUUGAAUAUUTT against Rapgef6 , thanks.
0.502

GET /values?readout=z-score&item= CCUGGCAGUAAAAGAUUGCTT against Ndst3
0.836

# lookup: z-score of GGAGCUUUCAGCUAAGACATT against Rassf4
0.671

* * *

assay: Components of the Cytosolic LPS Sensing Pathway: Gene Identification via Genome-wide siRNA Screen; conditions: RAW264.7 macrophages, IL-1a HTRF, actives lie on both sides, screened at 100 nM (by protocol), cells primed 5 h with Pam3CSK4 first
The whole screen tested about 53,000 sequences, of which about 3,700 (7%) were called active. Many of the other results were omitted from the sample, so actives are more common in it than they were.
recordedMetric: z-score

primarySequence	z-score
CCUUGGAAUGCAUAGCCAATT against Sdk1	0.285 (inactive)
GCAGUGUCCAAAGCACUUUTT against Slc6a9	-1.14 (inactive)
GGACUUCAUGGGUCGCUUUTT against Gstm2	-0.185 (inactive)

State the recorded z-score for this entry: GGUGCAUUAUCUUGGUUCGTT against Hmga2
-2.46 (active)

Tell me the measured z-score of GGCCUUUGCAUGCAAUAGUTT against Zfp119b , please.
0.0596 (inactive)

Look at this sequence and give its reported z-score. GGGCAGUGAAAUCCUGUCUTT against Trim16
-2.81 (active)

* * *

assay: Components of the Cytosolic LPS Sensing Pathway: Gene Identification via Genome-wide siRNA Screen; details: RAW264.7 macrophages, IL-1a HTRF, actives lie on both sides, screened at 100 nM (by protocol), cells primed 5 h with Pam3CSK4 first;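 further: robust z of the log signal after scaling to non-targeting control siRNA wells of the plate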
Out of some 53,000 sequences screened, about 3,700 (7%) were called active. The entries come from a sample that favours actives as a whole.
recordedMetric: z-score

primarySequence	recordedMetric	assayResult
CGUGAUGCUGUAAAUAGUUTT against AI606181	z-score	-0.485 (inactive)
GGUACAUCUAUUUCUUGUUTT against Ncam2	z-score	-1.2 (inactive)
CCUAUAAAGCUCUAAAGGATT against Caprin1	z-score	0.115 (inactive)
CCAAGCCUUAAUAAGUCAATT against Ccp110	z-score	-2.52 (active)
GGGAUGAUUUUGAGAUUUUTT against Dmpk	z-score	2.74 (active)
GGCUGUCUUGUCCAAAUGUTT against Olfr1357	z-score	-2.9 (active)
CCCACACAAUUCUCAUGGGTT against Olfr366	z-score	0.661 (inactive)
GGUUGUCAUAAUCUUGUUATT against Irgq	z-score	-0.59 (inactive)

Recorded z-score of GGGUACCUGUCCAAGGUCATT against Mfn2 , please.
0.849 (inactive)

* * *

As shown below, each of these sequences has a reported z-score value.
test: Components of the Cytosolic LPS Sensing Pathway: Gene Identification via Genome-wide siRNA Screen; conditions: RAW264.7 macrophages, IL-1a HTRF, actives lie on both sides, screened at 100 nM (by protocol), cells primed 5 h with Pam3CSK4 first;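 further: robust z of the log signal after scaling to non-targeting control siRNA wells of the plate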
Hit rate of the full screen: of about 53,000 sequences, about 3,700 (7%) were called active. This excerpt belongs to a sample that is enriched for actives.
Answer using only a numeral; do not append any unit.

primarySequence	z-score
CCGAGUAUAUCUAUAAUAGTT against Ear14	-0.607
GCCUGACGGCACGUAUGUATT against Acox1	0.527
GAGAACAAGCCUAAGCCCATT against V1rb5	1.44
GGGCAAUGUUUGUCACUAATT against Akr1b10	1.55
GUCUGCAUCACCUUCACCATT against Lhb	-0.301
GGAGUGAUCAUCUAUAAUUTT against Rnf133	2.12
GGAACUGACUCUUGAAAAUTT against Cd14	0.367
GCAUGUUUACGUUCCUGACTT against Slc2a12	-0.0386

// returns reported z-score for input GUCAGAUCUCAGAAUCAUGTT against Ercc6l2
-2.27

May I ask what z-score has been recorded for GGAUUAAAUGGUGGUGGAGTT against Dnajb6 ?
-1.1

Which measured z-score value corresponds to CUUAGACCCAAUUCAAUUCTT against Zfp667 ?
-0.0845

I am curious: what z-score value has been reported for CCAGAAUACUGGGAUACAATT against B4galnt3 ?
-0.577

For the sequence GGAGAUCCGUUCAAGGGUUTT against Olfr557 , what z-score is on record?
0.73

Entry GCCCGAUUAAAAUAAAUUGTT against Arih2 has what z-score?
0.636

I am curious: what z-score value has been reported for GGUUCAAGUGACCAAGUUCTT against Odf3 ?
-0.487

I'd like to know its z-score. The sequence in question is GCCGUUUACCUUAGUCUGUTT against Cyb5rl
0.00283

* * *

test: Components of the Cytosolic LPS Sensing Pathway: Gene Identification via Genome-wide siRNA Screen; settings: RAW264.7 macrophages, IL-1a HTRF, actives lie on both sides, screened at 100 nM (by protocol), cells primed 5 h with Pam3CSK4 first;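 further: robust z of the log signal after scaling to non-targeting control siRNA wells of the plate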
Hit rate of the full screen: of about 53,000 sequences, about 3,700 (7%) were called active. The entries come from a sample that favours actives as a whole.
Class 1: z-score at least 0.5. Class -1: z-score below 0.5.

Please review the following examples before continuing.
primarySequence	category
GCUAGUUAUCUAAUCUCUGTT against Nuak1	1
GCCUUUACACUAAUGAUAATT against Cilp	-1
GGCCCAGUCCGAUAUUCUATT against Phxr4	-1
GGGAGAGCUGCUGUUUUUCTT against Rxfp3	1
GGCUAAGAAUGAGACUGGUTT against Abcg4	-1

Query sequence follows.
Record GGGCCCAGAUUUCAAUGGGTT against Car14 ; criterion: z-score no lower than 0.5. Met?
-1

* * *

As shown below, each of these sequences has a reported z-score value.
test: Components of the Cytosolic LPS Sensing Pathway: Gene Identification via Genome-wide siRNA Screen; conditions: RAW264.7 macrophages, IL-1a HTRF, actives lie on both sides, screened at 100 nM (by protocol), cells primed 5 h with Pam3CSK4 first;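 further: robust z of the log signal after scaling to non-targeting control siRNA wells of the plate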
Hit rate of the full screen: of about 53,000 sequences, about 3,700 (7%) were called active. This is one part of a sample in which actives are shown more often than they occur.
Give the figure by itself; no unit, no explanation.

These solved cases illustrate the format of a correct answer.
primarySequence	z-score
GGAAAGAAGGACAUGUUGCTT against Fbxo2	-1.22
GCAGCUUAAGUUGCCCAAGTT against Aatk	-0.27
GCAAGAUCCGUACAUAGCATT against Wdr48	-1.43
GCAGGGAUCUGGAUUUAAUTT against Arf5	3.37
CGUAAAACUCUUAGGCAUGTT against Npm1	1.13

// returns reported z-score for input GGUAUCCCUAACUGGCAGUTT against Tro
-0.849

Which z-score is reported for this sequence? GCAGUGUCUAGGACAGUCATT against Pdcd5
0.0243

Entry under review: GGAAUAUUCUCUCAUCACATT against Mmachc . Reported z-score?
-2.07

Fill in: z-score of CCUUACCAGGAAACAUAUUTT against Dennd10 is ___
-1.33

# query: z-score of entry GGAACUAAAUGUGAAACAUTT against Ift52
-2.07
